Target: dimeric mouse TIGIT-Fc (R&D Systems, 7267-TG) (mouse) (UniProt P86176)
Sequence (P86176 other isoform, or with tags, fused parts or gaps limits assumed, form in doubt): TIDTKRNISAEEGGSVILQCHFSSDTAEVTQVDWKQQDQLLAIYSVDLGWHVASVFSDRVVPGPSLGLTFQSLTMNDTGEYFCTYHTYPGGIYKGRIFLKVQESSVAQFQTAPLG
Experiment: BLI (ForteBio), IgG on sensor, avid
value-type: pKd
pKd here is simply -log10 of the concentration when that concentration is written in mol/L.

Here's what some known entries look like.
>  <binder>
Clone 16D (antibody, V domains shown) VH: QVQLVQSGAEVKKPGSSVKVSCKASGGTFSDYPISWVRQAPGQGLEWMGGIIPIVGGANYAQKFQGRVTITADESTSTAYMELSSLRSEDTAVYYCTRQSTWHKLFGTDVWGQGTTVTVSS VL: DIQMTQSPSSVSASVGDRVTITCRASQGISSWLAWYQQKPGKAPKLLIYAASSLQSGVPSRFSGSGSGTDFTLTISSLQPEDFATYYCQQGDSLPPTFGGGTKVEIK

>  <readout-number>
8.58

$$$$
>  <binder>
Clone 16E (antibody, V domains shown) VH: QVQLVQSGAEVKKPGSSVKVSCKASGGTFSDYPISWVRQAPGQGLEWMGGIIPIVGGANYAQKFQGRVTITADESTSTAYMELSSLRSEDTAVYYCARQSTWHKVYGTDVWGQGTTVTVSS VL: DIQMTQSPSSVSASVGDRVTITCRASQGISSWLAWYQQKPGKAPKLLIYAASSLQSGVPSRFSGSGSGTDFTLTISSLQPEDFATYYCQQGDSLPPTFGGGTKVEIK

>  <readout-number>
8.43

$$$$
>  <binder>
Clone 25D (antibody, V domains shown) VH: QVQLVQSGAEVKKPGASVKVSCKASGYTFTSYPIGWVRQAPGQGLEWMGWISSYNGNTNYAQKLQGRVTMTTDTSTSTAYMELRSLRSDDTAVYYCARDLKSFWSGDVLGAFDIWGQGTMVTVSS VL: DIQMTQSPSSLSASVGDRVTITCRASQSISSYLNWYQQKPGKAPKLLIYAASSLQSGVPSRFSGSGSGTDFTLTISSLQPEDFATYYCQQSVPPRTFGGGTKVEIK

>  <readout-number>
9.24

$$$$
>  <binder>
Clone 16C (antibody, V domains shown) VH: QVQLVQSGAEVKKPGSSVKVSCKASGGTFREYAISWVRQAPGQGLEWMGGIHPIFGTARYAQKFQGRVTITADESTSTAYMELSSLRSEDTAVYYCTRQSTWHKLYGTDVWGQGTTVTVSS VL: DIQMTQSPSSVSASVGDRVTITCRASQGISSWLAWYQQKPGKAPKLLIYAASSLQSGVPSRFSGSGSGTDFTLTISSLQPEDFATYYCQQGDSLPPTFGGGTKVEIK

>  <readout-number>
9.10

$$$$
>  <binder>
Clone 25A (antibody, V domains shown) VH: QVQLVQSGAEVKKPGASVKVSCKASGYTFTSYAISWVRQAPGQGLEWMGWISAYNGNTKYAQKLQGRVTMTTDTSTSTAYMELRSLRSDDTAVYYCARDLSSFWSGDVLGAFDIWGQGTMVTVSS VL: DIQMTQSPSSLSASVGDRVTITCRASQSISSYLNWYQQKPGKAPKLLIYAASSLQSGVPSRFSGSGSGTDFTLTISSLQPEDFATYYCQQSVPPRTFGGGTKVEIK

>  <readout-number>
9.08

$$$$
>  <binder>
Clone 25C (antibody, V domains shown) VH: QVQLVQSGAEVKKPGASVKVSCKASGYTFTSYPIGWVRQAPGQGLEWMGWISSYNGNTNYAQKLQGRVTMTTDTSTSTAYMELRSLRSDDTAVYYCARGASSFWSGDVLGAFDIWGQGTMVTVSS VL: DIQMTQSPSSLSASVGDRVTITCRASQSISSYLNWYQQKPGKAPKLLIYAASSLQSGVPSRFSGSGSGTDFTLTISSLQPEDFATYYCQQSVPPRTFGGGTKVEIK

>  <readout-number>
9.31

$$$$

Let's switch to this binder now.
Q: State the recorded pKd for this entry: Clone 25B (antibody, V domains shown) VH: QVQLVQSGAEVKKPGASVKVSCKASGYTFTSYPIGWVRQAPGQGLEWMGWISSYNGNTNYAQKLQGRVTMTTDTSTSTAYMELRSLRSDDTAVYYCARDLSSFWSGDVLGAFDIWGQGTMVTVSS VL: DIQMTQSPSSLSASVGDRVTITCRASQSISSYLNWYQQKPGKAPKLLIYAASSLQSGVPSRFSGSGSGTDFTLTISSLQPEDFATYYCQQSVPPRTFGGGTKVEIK
Ans: 9.14
